These entries and their values trace back to patent US20260315604A1.

# targetUnderTest: Human OTUB1 wild-type (Homo sapiens, UniProt Q96FW1)
# Construct: His tag (N); made in house; host or cells: E. coli BL21-CodonPlus (DE3)-RIPIL
# Sequence (Q96FW1 whole entry): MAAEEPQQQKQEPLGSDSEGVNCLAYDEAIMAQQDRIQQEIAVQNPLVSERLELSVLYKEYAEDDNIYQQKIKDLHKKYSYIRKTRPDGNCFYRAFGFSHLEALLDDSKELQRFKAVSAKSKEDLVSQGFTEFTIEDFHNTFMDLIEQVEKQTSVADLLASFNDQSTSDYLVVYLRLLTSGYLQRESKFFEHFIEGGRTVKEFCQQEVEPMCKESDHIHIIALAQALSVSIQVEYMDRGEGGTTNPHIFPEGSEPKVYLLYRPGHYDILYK
# measurementDescription: Covalent modification of OTUB1 (adduct formation), mass spectrometry-based assay (OTUB1 covalent binders; selected CFTR or cGAS based bivalent compounds)
# Assay type: binding
# runParameters: covalent adduct formation with OTUB1 protein
Friendly reminder: % of OTUB1 modified below 20% is True, at or above is False.

These recorded examples may help you get a feel for the data.
Cc1ccc(C(=O)NC2CN(C(=O)/C=C/CN(C)C)C2)s1 [XS190-9]; False
CC(C)c1ccc(NC(=O)C2CCN(C(=O)/C=C/CN(C)C)C2)s1 (centres unmarked) [XS175-180]; True
CC(C)c1ccc(NC(=O)C2CN(C(=O)C#CCN(C)C)C2)s1 [XS224-116]; False

Here is another molecule to look at.
Ask: Is it true that % of OTUB1 modified reported for Cc1ccc(NC(=O)C2(O)CN(C(=O)C#CC(C)(C)N(C)C)C2)s1 [XS209-100] is less than 20%?
Result: False
